Target: T1, cynoCD46-His (cynomolgus, UniProt A0A2K5WCL8 35-328)
T1 construct: extracellular domain; Immobilised by amine coupling on the SPR chip; not shown: His tag
T1 sequence: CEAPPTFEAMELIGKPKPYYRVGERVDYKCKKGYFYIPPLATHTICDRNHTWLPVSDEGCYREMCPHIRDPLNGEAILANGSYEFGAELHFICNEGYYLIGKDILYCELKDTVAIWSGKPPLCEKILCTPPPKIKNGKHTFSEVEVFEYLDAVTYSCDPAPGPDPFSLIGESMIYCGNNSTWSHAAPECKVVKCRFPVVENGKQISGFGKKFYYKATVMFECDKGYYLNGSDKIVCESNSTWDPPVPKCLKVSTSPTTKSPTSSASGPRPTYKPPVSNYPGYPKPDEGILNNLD
Assay: SPR, cynoCD46-His immobilised, antibody as analyte, pH 7.4
attribute.measured: kon (M⁻¹ s⁻¹)

# binder, data.value
records = [
    ("BA-133-04-02 (antibody, V domains shown, also called CPE hit BA133-04-02) VH: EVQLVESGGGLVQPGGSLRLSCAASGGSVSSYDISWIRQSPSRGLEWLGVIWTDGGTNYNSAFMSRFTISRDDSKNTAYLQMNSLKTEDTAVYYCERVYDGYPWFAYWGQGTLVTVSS VL: AIQLTQSPSSLSASVGDRVTITCRASQGIANYLNWYLQKPGQSPQLLIYYTSSLHSGVPDRFSGSGSGTDFTLKISRVEAEDVGVYYCQQYIKLPWTFGQGTKVEIK", 852000),
]
